Method Summary: Stability in rat hepatocytes assessed as half life at 1 uM incubated upto 180 mins by LC-MS/MS analysis
Assay type: ADME, cell-based, Hepatocyte
Observable: half-life at 1 µM (h)
Kindly answer with a numeric value in h, unit omitted.

half-life at 1 µM reported for this compound C[C@@H](Oc1ccc2[nH]nc(-c3ccc(N4CC5(C4)CN(S(C)(=O)=O)C5)nc3)c2c1)c1c(Cl)cncc1Cl : 1.23

---

Method Summary: Half life in dog at 10 mg/kg, po measured for 24 hrs by LC-MS/MS analysis
Format: ADME, organism-based, Canis lupus familiaris
Measurement Context: in vivo
Observable: half-life (h)
Dear colleague, please return just the value in h, with no unit written.

Please fill in: half-life reported for C[C@@H](Oc1ccc2[nH]nc(-c3ccc(N4CC5(C4)CN(S(C)(=O)=O)C5)nc3)c2c1)c1c(Cl)cncc1Cl = 24.8
